Give flash point for every item shown.
Write the value in °C as a bare number.

-- ask Tell me the measured flash point of COC1C=CC(OC)O1 (configuration not stated) [2,5-dimethoxy-2,5-dihydrofuran] , please.
-- reply 51

-- ask Now this one: CCSSCC [diethyl disulfide]
-- reply 40

-- ask Try the compound CCC(C)O (configuration not stated)
-- reply 26

-- ask What about this compound? `c1ccc2occc2c1`
-- reply 56

-- ask Now the same for `N#CCCCCC#N`
-- reply 159

-- ask Thanks! And CCCCCCCC(=O)Cl [octanoyl chloride] ?
-- reply 82

-- ask Now consider `CCc1ccc(Cl)cc1` .
-- reply 64

-- ask What would you report for N#CCc1ccccc1 [benzyl cyanide] ?
-- reply 101

-- ask Another compound: `C=CCCCCO`
-- reply 47

-- ask What do you have for CC(=O)OC(C)=O [acetic anhydride] ?
-- reply 49

-- ask Note, next up: `CNCCO`
-- reply 71

-- ask Same lookup for CC1CCC(C)CC1 (configuration not stated) , please.
-- reply 10

Reference source for all entries: a flash point compilation (Sun et al. 2020)
